These measurements were taken from patent US6911450B1.

test system: PBMC; test: Cytotoxicity assay revealed by MTT after seven days of culture; assay type: cell-based, human; details: 7 days, 50% diminution of growth and viability
Readout label: CC50

Record request: CC50 value, item `Cc1cc(C)cc(Cc2c(C(C)C)c(=O)[nH]c(=O)n2COCCCN(OC(=O)C(C)(C)C)C(N)=O)c1`
65 µM

* * *

I'd appreciate it if you could supply melting point values for the items below.

# input compound: `CCc1c(Cc2cc(C)cc(C)c2)n(COCCCCN(O)C(N)=O)c(=O)[nH]c1=O` ; wanted: its melting point
148 to 150 °C

Can you look up the measured melting point of `Cc1cc(C)cc(Cc2c(C(C)C)c(=O)[nH]c(=O)n2COCCCN(O)C(N)=O)c1` for me?
88 to 90 °C

Which melting point value belongs to `CCc1c(Cc2cc(C)cc(C)c2)n(COCCN(O)C(N)=O)c(=O)[nH]c1=O` ?
147 to 148 °C

Which melting point reading was recorded for the compound `CCc1c(Cc2cc(C)cc(C)c2)n(COCCCN(O)C(N)=O)c(=O)[nH]c1=O` ?
165 to 167 °C

// melting point lookup, key: `CC(=O)ON(CCCOCn1c(Cc2cc(C)cc(C)c2)c(C(C)C)c(=O)[nH]c1=O)C(N)=O`
77 to 79 °C

Need melting point, item `CCc1c(Cc2ccccc2)n(COCCN(O)C(N)=O)c(=O)[nH]c1=O`
276 to 277 °C
